B1: minF1; a variant is named by its letters at N, in order (parent)
chain: GAGACCGCAACTGAAAAGTTGTTANNNNAANGNNNGGTTGAATTTCTGCACGTAGAAGCAAAAGGC

variants of: B1; assay: fraction ligated after 30 min (ligated reads / total reads); higher = more ligase activity; settings: with F1*subA RNA substrate (template-directed ligation), 42 °C
MEASURE NAME: fraction ligated
Note: the reply should be a number with no unit written.

TCAAGATG: 0.00472
CAGATATG A24T: 0.00546
TCAGGATG: 0.00705
TCAGAGGA G32T G36T T38G T39G G40T A41T A42G: 0.00154
TCAGAGAT G32T T38G G40T A41G: 0.0724

[ask] Quick check: fraction ligated of TCAGAGGA G32T ?
[reply] 0.0037

[ask] Repeat with TCGATATG
[reply] 0.0107
